Just for reference, patent EP4772634A1 is where these values come from.

System: human coagulation factor XI protein
ASSAY_PROCEDURE: In vivo activity in human coagulation factor XI model mice (Experimental Example 3), plasma FXI protein by ELISA
CONDITION_SET: humanized mice, single subcutaneous 1 mg/kg, D14
Procedure: The humanized mice used in this experimental example were purchased from Cyagen Biosciences Co., Ltd. The humanized mice were randomly divided into groups, with 4 mice per group. […] Plasma was separated, and the content of the coagulation factor XI protein in the plasma was measured at each time point. […] The coagulation factor XI protein inhibition rate was calculated according to the following equation: [formula] […]
I'd appreciate it if you could supply Relative inhibition rate (%) of FXI protein values for the items below.
Put your answer as a value accompanied by its unit after it.

Entry TD02M01L01: siRNA ligand conjugate: TD02M01 with L01 (GalNAc) ligand at 3' end of sense strand SEQ ID NO 33; antisense SEQ ID NO 34 (sense GGATGATTTTCTTATATCA; antisense TGATATAAGAAAATCATCCTG; GalNAc L01 ligand at sense 3' end, 2'-OMe/2'-F, pattern not given here) : Relative inhibition rate (%) of FXI protein on human coagulation factor XI protein = 63.9%

The substance TD01M01L01: siRNA ligand conjugate: TD01M01 with L01 (GalNAc) ligand at 3' end of sense strand SEQ ID NO 29; antisense SEQ ID NO 30 (sense GATCTCCAACTAAAATACT; antisense AGTATTTTAGTTGGAGATCCG; GalNAc L01 ligand at sense 3' end, 2'-OMe/2'-F, pattern not given here) , tested on human coagulation factor XI protein, showed Relative inhibition rate (%) of FXI protein of 67.5%

Short answer on human coagulation factor XI protein for TD01M02L01: siRNA ligand conjugate: TD01M02 with L01 (GalNAc) ligand at 3' end of sense strand SEQ ID NO 31; antisense SEQ ID NO 32 (sense GATCTCCAACTAAAATACT; antisense AGTATTTTAGTTGGAGATCCG; GalNAc L01 ligand at sense 3' end, 2'-OMe/2'-F, pattern not given here) , Relative inhibition rate (%) of FXI protein: 67.4%

Readout Relative inhibition rate (%) of FXI protein for TD02M02L01: dsRNA ligand conjugate: TD02M02 with L01 (GalNAc) ligand at 3' end of sense strand SEQ ID NO 35; antisense SEQ ID NO 36 (sense GGATGATTTTCTTATATCA; antisense TGATATAAGAAAATCATCCTG; GalNAc L01 ligand at sense 3' end, 2'-OMe/2'-F, pattern not given here) , test system human coagulation factor XI protein, was 70.2%
